assay: Inhibition of quorum sensing system in Chromobacterium violaceum ATCC 31352 assessed as reduction in violacein production at 100 uM relative to control
QUANTITY_MEASURED: inhibition (%)

Illustrative cases are given below, each with its answer.
>>> print(df.to_string())
                         smiles_str  recorded_value
0  O=C(c1ccc(Cl)cc1)c1ccnc(C(F)F)c1              57
1            COC(=O)c1ccnc(C(F)F)c1              59

1. N#Cc1ccnc(C(F)F)c1
2. O=[N+]([O-])c1cc[n+]([O-])cc1
Prompt: Kindly identify which of 1 and 2 has the larger recorded inhibition value. Could you answer with the label of the item you picked?
Completion: 1

---

system: Pseudomonas aeruginosa; assay: Inhibition of biofilm formation in Pseudomonas aeruginosa at 100 uM measured after 48 hrs relative to control; format: functional
QUANTITY_MEASURED: inhibition at 100 µM (%)
Provide only the numeric value, understood in %.

Illustrative cases are given below, each with its answer.
>>> df
                         smiles_str             test_system  recorded_value
0  O=C(c1ccc(Cl)cc1)c1ccnc(C(F)F)c1  Pseudomonas aeruginosa              73
1            COC(=O)c1ccnc(C(F)F)c1  Pseudomonas aeruginosa              75
2     O=[N+]([O-])c1cc[n+]([O-])cc1  Pseudomonas aeruginosa              71

Field: next molecule
Per the records, this molecule ( N#Cc1ccnc(C(F)F)c1 ) has inhibition at 100 µM equal to 85
